# study-system: dhPPase (Desulfitobacterium hafniense CBS-PPase) (Desulfitobacterium hafniense, UniProt B8FP42, K100A)
# Construct: full-length, tag-less, recombinant in E. coli BL21 (pET-42b); homotetramer
# Sequence (B8FP42 entry or part of it K100A): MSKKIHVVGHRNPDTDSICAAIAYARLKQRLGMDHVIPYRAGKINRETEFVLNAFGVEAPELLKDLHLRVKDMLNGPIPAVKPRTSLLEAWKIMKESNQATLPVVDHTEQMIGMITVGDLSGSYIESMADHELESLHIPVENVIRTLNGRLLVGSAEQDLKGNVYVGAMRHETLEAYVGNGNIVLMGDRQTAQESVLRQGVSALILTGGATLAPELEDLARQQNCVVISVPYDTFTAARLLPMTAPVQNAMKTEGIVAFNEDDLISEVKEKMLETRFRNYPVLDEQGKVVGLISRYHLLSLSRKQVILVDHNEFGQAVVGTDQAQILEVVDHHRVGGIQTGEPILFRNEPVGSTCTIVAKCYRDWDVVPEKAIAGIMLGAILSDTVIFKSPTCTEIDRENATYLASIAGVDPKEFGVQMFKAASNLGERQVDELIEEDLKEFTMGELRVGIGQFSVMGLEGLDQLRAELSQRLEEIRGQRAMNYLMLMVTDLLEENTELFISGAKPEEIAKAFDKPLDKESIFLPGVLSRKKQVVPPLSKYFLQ
# experiment: activation of PPi hydrolysis, continuous Pi assay, Hill fit
# reported-conditions: read-out: Adenosine Phosphate and Parameter Value ^a / Ap4A / K
pEC50: −log10 of the molar value.
measured-parameter: pEC50

1) Nc1ncnc2c1ncn2[C@@H]1O[C@H](COP(=O)(O)OP(=O)(O)OP(=O)(O)OP(=O)(O)OC[C@H]2O[C@@H](n3cnc4c(N)ncnc43)[C@H](O)[C@@H]2O)[C@@H](O)[C@H]1O    7.94

* * *

# study-system: dhPPase (Desulfitobacterium hafniense CBS-PPase) (Desulfitobacterium hafniense, UniProt B8FP42, G118M)
# Construct: full-length, tag-less, recombinant in E. coli BL21 (pET-42b); homotetramer
# Sequence (B8FP42 entry or part of it G118M): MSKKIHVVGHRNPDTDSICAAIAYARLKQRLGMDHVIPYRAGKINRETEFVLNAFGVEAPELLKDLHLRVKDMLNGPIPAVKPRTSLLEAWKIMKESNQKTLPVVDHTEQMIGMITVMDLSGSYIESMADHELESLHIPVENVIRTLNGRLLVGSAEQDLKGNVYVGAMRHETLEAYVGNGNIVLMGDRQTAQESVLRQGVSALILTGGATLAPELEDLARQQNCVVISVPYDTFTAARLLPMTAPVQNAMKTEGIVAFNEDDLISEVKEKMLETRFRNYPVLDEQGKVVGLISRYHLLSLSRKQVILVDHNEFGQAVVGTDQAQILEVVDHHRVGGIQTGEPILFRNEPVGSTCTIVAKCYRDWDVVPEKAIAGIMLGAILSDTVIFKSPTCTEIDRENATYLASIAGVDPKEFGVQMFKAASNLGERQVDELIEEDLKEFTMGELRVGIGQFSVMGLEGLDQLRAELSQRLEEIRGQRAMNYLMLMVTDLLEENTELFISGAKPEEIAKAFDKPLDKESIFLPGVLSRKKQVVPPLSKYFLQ
# experiment: activation of PPi hydrolysis, continuous Pi assay, Hill fit
# reported-conditions: read-out: Adenosine Phosphate and Parameter Value ^a / Ap4A / K
measured-parameter: EC50 (nM)

1. Nc1ncnc2c1ncn2[C@@H]1O[C@H](COP(=O)(O)OP(=O)(O)OP(=O)(O)OP(=O)(O)OC[C@H]2O[C@@H](n3cnc4c(N)ncnc43)[C@H](O)[C@@H]2O)[C@@H](O)[C@H]1O    28

* * *

# study-system: dhPPase (Desulfitobacterium hafniense CBS-PPase) (Desulfitobacterium hafniense, UniProt B8FP42, V117T)
# Construct: full-length, tag-less, recombinant in E. coli BL21 (pET-42b); homotetramer
# experiment: activation of PPi hydrolysis, continuous Pi assay, Hill fit
# reported-conditions: read-out: Adenosine Phosphate and Parameter Value ^a / Ap4A / K
measured-parameter: EC50 (nM)

1) Nc1ncnc2c1ncn2[C@@H]1O[C@H](COP(=O)(O)OP(=O)(O)OP(=O)(O)OP(=O)(O)OC[C@H]2O[C@@H](n3cnc4c(N)ncnc43)[C@H](O)[C@@H]2O)[C@@H](O)[C@H]1O [Ap4A]    1.3

* * *

# study-system: dhPPase (Desulfitobacterium hafniense CBS-PPase) (Desulfitobacterium hafniense, UniProt B8FP42, V117A)
# Construct: gene Dhaf_1515; full-length, tag-less, recombinant in E. coli BL21 (pET-42b); homotetramer
# experiment: activation of PPi hydrolysis, continuous Pi assay, Hill fit
# Type: biochemical
# reported-conditions: read-out: Adenosine Phosphate and Parameter Value ^a / Ap4A / K
pEC50: −log10 of the molar value.
measured-parameter: pEC50

1. Nc1ncnc2c1ncn2[C@@H]1O[C@H](COP(=O)(O)OP(=O)(O)OP(=O)(O)OP(=O)(O)OC[C@H]2O[C@@H](n3cnc4c(N)ncnc43)[C@H](O)[C@@H]2O)[C@@H](O)[C@H]1O    6.92

* * *

# study-system: dhPPase (Desulfitobacterium hafniense CBS-PPase) (Desulfitobacterium hafniense, UniProt B8FP42, K100A)
# Construct: full-length, tag-less, recombinant in E. coli BL21 (pET-42b); homotetramer
# experiment: isothermal titration calorimetry, single-binding-site model
# reported-conditions: read-out: KN
pKd: −log10 of the molar value.
pKd: recorded values
measured-parameter: pKd

1) Nc1ncnc2c1ncn2[C@@H]1O[C@H](COP(=O)(O)OP(=O)(O)O)[C@@H](O)[C@H]1O [ADP]    5.22
2) Nc1ncnc2c1ncn2[C@@H]1O[C@H](COP(=O)(O)O)[C@@H](O)[C@H]1O [AMP]    5.89
